# Tested on: KLEBSIELLA PNEUMONIAE ATCC 8045
# testMethodNotes: In vitro antibacterial activity, MIC, BHI agar dilution
# Type: cell-based
# setupConditions: K. pneumoniae ATCC 8045, unit assumed
endpointName: MIC (µg/mL)
// note: answer is a bare numeric in µg/mL

input: Read off the recorded MIC for CCC1OC(=O)C(C)C(=O)C(C)C(OC2OC(C)CC(N(C)C)C2O)C(C)(OC)CC(C)C2=NC(CN(C)C)CN3C(=O)OC1(C)C3C2C (stereo not shown) [Example 97]
output: 100

input: Read off the recorded MIC for CC[C@H]1OC(=O)[C@H](C)C(=O)[C@H](C)[C@@H](O[C@@H]2O[C@H](C)C[C@H](N(C)C)[C@H]2O)[C@](C)(OC)C[C@@H](C)C2=NC3CN(CCN(C)C)CC3N3C(=O)O[C@@]1(C)[C@H]3[C@H]2C (stereo partly shown) [Example 129]
output: 100

====

# Test system: STREPTOCOCCUS PYOGENES PIU 2548
# testMethodNotes: In vitro antibacterial activity, MIC, BHI agar dilution
# Type: cell-based
# setupConditions: S. pyogenes PIU 2548, unit assumed
endpointName: log10 MIC (log10 of the value in µg/mL)
Give log10 of MIC, with MIC taken in µg/mL.

input: Look up and report measured log10 MIC (STREPTOCOCCUS PYOGENES PIU 2548) for the following compound: CC[C@H]1OC(=O)[C@H](C)C(=O)[C@H](C)[C@@H](O[C@@H]2O[C@H](C)C[C@H](N(C)C)[C@H]2O)[C@](C)(OC)C[C@@H](C)C2=N[C@H](COCc3cc(C)c4ccccc4n3)CN3C(=O)O[C@@]1(C)[C@H]3[C@H]2C [Example 83]
output: -0.41

input: Look up and report measured log10 MIC (STREPTOCOCCUS PYOGENES PIU 2548) for the following compound: CC[C@H]1OC(=O)[C@H](C)C(=O)[C@H](C)[C@@H](O[C@@H]2O[C@H](C)C[C@H](N(C)C)[C@H]2O)[C@](C)(OC)C[C@@H](C)C2=NC(COCc3ccc(Cl)cc3)C(COCc3ccc(Cl)cc3)N3C(=O)O[C@@]1(C)[C@H]3[C@H]2C (stereo partly shown) [Example 147]
output: 0.49

input: Look up and report measured log10 MIC (STREPTOCOCCUS PYOGENES PIU 2548) for the following compound: CC[C@H]1OC(=O)[C@H](C)C(=O)[C@H](C)[C@@H](O[C@@H]2O[C@H](C)C[C@H](N(C)C)[C@H]2O)[C@](C)(OC)C[C@@H](C)C2=N[C@@H]3COC[C@@H]3N3C(=O)O[C@@]1(C)[C@H]3[C@H]2C [Example 18]
output: -0.41

input: Look up and report measured log10 MIC (STREPTOCOCCUS PYOGENES PIU 2548) for the following compound: CC[C@H]1OC(=O)[C@H](C)C(=O)[C@H](C)[C@@H](O[C@@H]2O[C@H](C)C[C@H](N(C)C)[C@H]2O)[C@](C)(OC)C[C@@H](C)C2=NC[C@H](Cc3ccc(NC(=O)OCc4ccccc4)cc3)N3C(=O)O[C@@]1(C)[C@H]3[C@H]2C [Example 68]
output: -0.11

input: Look up and report measured log10 MIC (STREPTOCOCCUS PYOGENES PIU 2548) for the following compound: CCC1OC(=O)C(C)C(=O)C(C)C(OC2OC(C)CC(N(C)C)C2O)C(C)(OC)CC(C)C2=NCC(C)(CN(C)Cc3ccccc3)N3C(=O)OC1(C)C3C2C (stereo not shown) [Example 134]
output: -0.11

input: Look up and report measured log10 MIC (STREPTOCOCCUS PYOGENES PIU 2548) for the following compound: CC[C@H]1OC(=O)[C@H](C)C(=O)[C@H](C)[C@@H](O[C@@H]2O[C@H](C)C[C@H](N(C)C)[C@H]2O)[C@](C)(OC)C[C@@H](C)C2=NC[C@H](COCc3cccc(F)c3)N3C(=O)O[C@@]1(C)[C@H]3[C@H]2C [Example 72]
output: -0.41

input: Look up and report measured log10 MIC (STREPTOCOCCUS PYOGENES PIU 2548) for the following compound: CC[C@H]1OC(=O)[C@H](C)C(=O)[C@H](C)[C@@H](O[C@@H]2O[C@H](C)C[C@H](N(C)C)[C@H]2O)[C@](C)(OC)C[C@@H](C)C2=N[C@H](CCOCc3ccccc3)CN3C(=O)O[C@@]1(C)[C@H]3[C@H]2C [Example 92]
output: -0.41

input: Look up and report measured log10 MIC (STREPTOCOCCUS PYOGENES PIU 2548) for the following compound: CCC1OC(=O)C(C)C(=O)C(C)C(OC2OC(C)CC(N(C)C)C2O)C(C)(OC)CC(C)C2=NC(c3ccccc3)C(c3ccccc3)N3C(=O)OC1(C)C3C2C (stereo not shown) [Example 7]
output: 0.19

input: Look up and report measured log10 MIC (STREPTOCOCCUS PYOGENES PIU 2548) for the following compound: CC[C@H]1OC(=O)[C@H](C)C(=O)[C@H](C)[C@@H](O[C@@H]2O[C@H](C)C[C@H](N(C)C)[C@H]2O)[C@](C)(OC)C[C@@H](C)C2=N[C@@H]3CN(C(=O)OCc4ccccc4)C[C@@H]3N3C(=O)O[C@@]1(C)[C@H]3[C@H]2C [Example 20]
output: -0.11

input: Look up and report measured log10 MIC (STREPTOCOCCUS PYOGENES PIU 2548) for the following compound: CC[C@H]1OC(=O)[C@H](C)C(=O)[C@H](C)[C@@H](O[C@@H]2O[C@H](C)C[C@H](N(C)C)[C@H]2O)[C@](C)(OC)C[C@@H](C)C2=NC[C@H](COCc3ccc(F)cc3)N3C(=O)O[C@@]1(C)[C@H]3[C@H]2C [Example 71]
output: -0.41

input: Look up and report measured log10 MIC (STREPTOCOCCUS PYOGENES PIU 2548) for the following compound: CC[C@H]1OC(=O)[C@H](C)C(=O)[C@H](C)[C@@H](O[C@@H]2O[C@H](C)C[C@H](N(C)C)[C@H]2O)[C@](C)(OC)C[C@@H](C)C2=N[C@H](COCCN3CCOCC3)CN3C(=O)O[C@@]1(C)[C@H]3[C@H]2C [Example 87]
output: 0.49

input: Look up and report measured log10 MIC (STREPTOCOCCUS PYOGENES PIU 2548) for the following compound: CC[C@H]1OC(=O)[C@H](C)C(=O)[C@H](C)[C@@H](O[C@@H]2O[C@H](C)C[C@H](N(C)C)[C@H]2O)[C@](C)(OC)C[C@@H](C)C2=NC3CN(C)CC3N3C(=O)O[C@@]1(C)[C@H]3[C@H]2C (stereo partly shown) [Example 114]
output: 0.19

input: Look up and report measured log10 MIC (STREPTOCOCCUS PYOGENES PIU 2548) for the following compound: CC[C@H]1OC(=O)[C@H](C)C(=O)[C@H](C)[C@@H](O[C@@H]2O[C@H](C)C[C@H](N(C)C)[C@H]2O)[C@](C)(OC)C[C@@H](C)C2=NC(COCc3ccc(Cl)cc3)C(COCc3ccc(Cl)cc3)N3C(=O)O[C@@]1(C)[C@H]3[C@H]2C (stereo partly shown) [Example 148]
output: 0.49

input: Look up and report measured log10 MIC (STREPTOCOCCUS PYOGENES PIU 2548) for the following compound: CC[C@H]1OC(=O)[C@H](C)[C@@H](O[C@H]2C[C@@](C)(OC)[C@@H](O)[C@H](C)O2)[C@H](C)[C@@H](O[C@@H]2O[C@H](C)C[C@H](N(C)C)[C@H]2O)[C@](C)(O)C[C@@H](C)C(=O)[C@H](C)[C@@H](O)[C@]1(C)O [Ery A, Erythromycin A, reference compound]
output: 0.79

input: Look up and report measured log10 MIC (STREPTOCOCCUS PYOGENES PIU 2548) for the following compound: CC[C@H]1OC(=O)[C@H](C)C(=O)[C@H](C)[C@@H](O[C@@H]2O[C@H](C)C[C@H](N(C)C)[C@H]2O)[C@](C)(OC)C[C@@H](C)C2=N[C@H](COCc3ccc(OC)cc3)CN3C(=O)O[C@@]1(C)[C@H]3[C@H]2C [Example 90]
output: -0.11

input: Look up and report measured log10 MIC (STREPTOCOCCUS PYOGENES PIU 2548) for the following compound: CC[C@H]1OC(=O)[C@H](C)C(=O)[C@H](C)[C@@H](O[C@@H]2O[C@H](C)C[C@H](N(C)C)[C@H]2O)[C@](C)(OC)C[C@@H](C)C2=NC[C@H](C)N3C(=O)O[C@@]1(C)[C@H]3[C@H]2C [Example 8]
output: -0.11

Data provenance is patent US6274715A.
